Biological target: Glutamate NMDA receptor
Assay: Ability of compound to displace [3H]TCP from rat brain homogenates
Assay type: tissue-based
Experimental Readout: Ki

1) c1ccc2sc(C3(N4CCCC4)CCCCCC3)cc2c1 | > 10 µM
2) c1ccc2sc(C3(N4CCCCC4)CCCCCC3)cc2c1 | > 10 µM
3) c1ccc2sc(C3(N4CCCCCC4)CCCCCC3)cc2c1 | > 10 µM
4) NC1(c2cc3ccccc3s2)CCCCCC1 | > 10 µM
5) NC1(c2cc3ccccc3s2)CCCC1 | > 10 µM

* * *

Molecular target: Sodium-dependent dopamine transporter (Rattus norvegicus)
Sequence (P23977 whole entry): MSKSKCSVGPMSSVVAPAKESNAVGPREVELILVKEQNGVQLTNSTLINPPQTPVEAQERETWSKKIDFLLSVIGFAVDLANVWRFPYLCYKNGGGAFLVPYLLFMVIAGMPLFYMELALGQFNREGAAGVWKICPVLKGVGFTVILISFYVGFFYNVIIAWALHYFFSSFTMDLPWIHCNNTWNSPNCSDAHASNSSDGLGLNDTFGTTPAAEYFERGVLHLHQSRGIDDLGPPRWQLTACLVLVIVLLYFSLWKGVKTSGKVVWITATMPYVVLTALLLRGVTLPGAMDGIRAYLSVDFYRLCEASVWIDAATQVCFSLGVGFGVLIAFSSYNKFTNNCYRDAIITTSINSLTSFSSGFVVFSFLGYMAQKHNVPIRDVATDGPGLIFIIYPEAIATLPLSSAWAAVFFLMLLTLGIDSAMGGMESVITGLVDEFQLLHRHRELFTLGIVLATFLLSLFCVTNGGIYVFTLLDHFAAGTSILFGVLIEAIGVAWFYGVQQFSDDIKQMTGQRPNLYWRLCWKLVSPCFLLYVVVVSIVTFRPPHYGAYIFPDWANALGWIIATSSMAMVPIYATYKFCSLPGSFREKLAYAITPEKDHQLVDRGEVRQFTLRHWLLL
Experiment: Displacement of [3H]BTCP (1-[1-(2-benxo[b]thienyl)cyclohexyl]piperidine) from rat forebrain dopamine transporter
pIC50: −log10 of the molar value.
Reported pIC50 values follow for various compounds
Experimental Readout: pIC50

1. c1ccc2sc(C3(N4CCCC4)CCCCC3)cc2c1 | 8.17
2. c1ccc2sc(C3(N4CCCCCC4)CCCCCC3)cc2c1 | 7.17
3. c1ccc2sc(C3(N4CCCCC4)CCCCC3)cc2c1 | 9.18
4. NC1(c2cc3ccccc3s2)CCCCC1 | 6.91
5. c1ccc2sc(C3(N4CCCCC4)CCCCCC3)cc2c1 | 7.72
6. NC1(c2cc3ccccc3s2)CCCC1 | 6.20
7. NC1(c2cc3ccccc3s2)CCCCCC1 | 6.38
8. c1ccc2sc(C3(N4CCCC4)CCCC3)cc2c1 | 7.89
9. c1ccc2sc(C3(N4CCCCCC4)CCCCC3)cc2c1 | 7.74
10. c1ccc2sc(C3(N4CCCC4)CCCCCC3)cc2c1 | 7.89
11. c1ccc2sc(C3(N4CCCCC4)CCCC3)cc2c1 | 7.82
12. c1ccc2sc(C3(N4CCCCCC4)CCCC3)cc2c1 | 7.68
